Measured values drawn from paper PMC9482650 for this set.

Assay System: T1, MLLT4, P55196
T1 sequence (P55196 1002-1103, limits assumed, looked up): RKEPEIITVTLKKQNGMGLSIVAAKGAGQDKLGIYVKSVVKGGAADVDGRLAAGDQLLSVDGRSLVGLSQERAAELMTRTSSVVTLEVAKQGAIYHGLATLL
Assay Details: holdup assay
Parameters: key: below the threshold = too weak to quantify, mostly under pKd 3.1 to 4
Experimental Context: plain residues with an end cap or a label only (N-terminal biotin on a linker: ttds)
Assay Metric: pKd

Solved entries (count: 7):
INSERT INTO assay_data (binder, measured) VALUES
  ('SSLQSLETSV [ATP2B4, P23634]', 'below the threshold'),
  ('RLPKIKETTV [FRMPD4, Q14CM0]', 'below the threshold'),
  ('RHTTSTETAV [HPV30-E6, P36809]', 'below the threshold'),
  ('SKPTRRETEV [HPV35-E6, P27228]', 3.79),
  ('RPLPRKVSQL [DOCK4, Q8N1I0]', 'below the threshold'),
  ('QRQARSETLV [HPV59-E6, Q81964]', 4.33),
  ('SGSRPSATVV [HPV73-E6, Q82005]', 'below the threshold');

Let's switch to this binder now.
QUERY: Identify measured pKd associated with RLQRRRETQV [HPV18-E6, P06463]
RESULT: below the threshold
